The origin of these recorded values is ChEMBL document CHEMBL3425406.

# Test system: MDR1
# Experiment Notes: Efflux ratio of apparent permeability across basolateral to apical over apical to basolateral side in MDCK cells expressing MDR1
# Format: ADME, cell-based, Canis lupus familiaris
# Run Conditions: dog
Parameter threshold = 3. Response is class 1 when efflux ratio meets or exceeds it, else class 0.

* c1ccc(Cc2cc3c(c(NCC4CC4)n2)CCNCC3)cc1 | class 1
* CN(C)c1nc(Cc2ccccc2)cc2c1CCNCC2 | class 0
* CCNc1nc(Cc2ccccc2)cc2c1CCNCC2 | class 0
* CCCNc1nc(Cc2ccccc2)cc2c1CCNCC2 | class 1
* c1ccc(CNc2nc(Cc3ccccc3)cc3c2CCNCC3)cc1 | class 1
* c1ccc(Cc2cc3c(cn2)CCNCC3)cc1 | class 0
* CNc1nc(Cc2ccccc2)cc2c1CCNCC2 | class 0
